measurement parameters: in methyl acetate, 313.15 K
quantity kind: solubility (mole fraction)

Tell me solubility (mole fraction) reported for CC(CO)(CO)C(=O)O
0.00186

* * *

measurement parameters: in water, 303.15 K
quantity kind: solubility (mole fraction)
Answers are plain numbers.

Answer with the recorded solubility (mole fraction) for the compound listed here: CC(CO)(CO)C(=O)O
0.0199

* * *

measurement parameters: in n-butyl acetate, 303.15 K
quantity kind: solubility (mole fraction)
Numbers only.

State its solubility (mole fraction): CC(CO)(CO)C(=O)O
0.00053

* * *

measurement parameters: in isopropanol, 328.15 K
quantity kind: solubility (mole fraction)
Answers are plain numbers.

Supply solubility (mole fraction) value. Item: CC(CO)(CO)C(=O)O
0.0306

* * *

measurement parameters: in n-butyl acetate, 328.15 K
quantity kind: solubility (mole fraction)
One number for each entry.

Consider the molecule CC(CO)(CO)C(=O)O . State its measured solubility (mole fraction).
0.00113

* * *

measurement parameters: in n-butanol, 308.15 K
quantity kind: solubility (mole fraction)
Numbers only.

Given CC(CO)(CO)C(=O)O , respond with its solubility (mole fraction).
0.0132

* * *

measurement parameters: in isopropanol, 313.15 K
quantity kind: solubility (mole fraction)
Numbers only.

Return solubility (mole fraction) for the following compound: CC(CO)(CO)C(=O)O
0.0185

* * *

measurement parameters: in ethanol, 313.15 K
quantity kind: solubility (mole fraction)
One number for each entry.

Determine its reported solubility (mole fraction): CC(CO)(CO)C(=O)O
0.0254

* * *

measurement parameters: in n-butyl acetate, 298.15 K
quantity kind: solubility (mole fraction)
Numbers only.

Indicate the recorded solubility (mole fraction) value for this compound: CC(CO)(CO)C(=O)O
0.00046

* * *

measurement parameters: in ethanol, 308.15 K
quantity kind: solubility (mole fraction)
Give bare numbers.

Tell me its solubility (mole fraction) given CC(CO)(CO)C(=O)O as the entry.
0.0214

* * *

measurement parameters: in sec-butanol, 318.15 K
quantity kind: solubility (mole fraction)

Determine its reported solubility (mole fraction): CC(CO)(CO)C(=O)O
0.0191

* * *

measurement parameters: in water, 298.15 K
quantity kind: solubility (mole fraction)
Numbers only.

Output measured solubility (mole fraction) for this item: CC(CO)(CO)C(=O)O
0.0169

* * *

measurement parameters: in methanol, 328.15 K
quantity kind: solubility (mole fraction)
Give bare numbers.

Given CC(CO)(CO)C(=O)O , respond with its solubility (mole fraction).
0.0635

* * *

measurement parameters: in methyl acetate, 323.15 K
quantity kind: solubility (mole fraction)
Numbers only.

Name the recorded solubility (mole fraction) of the item CC(CO)(CO)C(=O)O in your answer.
0.00301

* * *

measurement parameters: in n-propanol, 293.15 K
quantity kind: solubility (mole fraction)
Give bare numbers.

Respond only with solubility (mole fraction) recorded for CC(CO)(CO)C(=O)O
0.00775

* * *

measurement parameters: in acetone, 318.15 K
quantity kind: solubility (mole fraction)
One number for each entry.

// Input: CC(CO)(CO)C(=O)O . Output its solubility (mole fraction) only.
0.00645

* * *

measurement parameters: in methanol, 308.15 K
quantity kind: solubility (mole fraction)
Answers are plain numbers.

Read the entry CC(CO)(CO)C(=O)O and write its reported solubility (mole fraction).
0.038

* * *

measurement parameters: in ethyl acetate, 298.15 K
quantity kind: solubility (mole fraction)

Answer with reported solubility (mole fraction) of CC(CO)(CO)C(=O)O
0.00056

* * *

measurement parameters: in water, 323.15 K
quantity kind: solubility (mole fraction)
One number for each entry.

Answer with reported solubility (mole fraction) of CC(CO)(CO)C(=O)O
0.0349
